- tested system: High affinity nerve growth factor receptor (Homo sapiens, UniProt P04629); also: in the data inactive means no Kd found up to 30 µM
- Sequence (P04629 whole entry): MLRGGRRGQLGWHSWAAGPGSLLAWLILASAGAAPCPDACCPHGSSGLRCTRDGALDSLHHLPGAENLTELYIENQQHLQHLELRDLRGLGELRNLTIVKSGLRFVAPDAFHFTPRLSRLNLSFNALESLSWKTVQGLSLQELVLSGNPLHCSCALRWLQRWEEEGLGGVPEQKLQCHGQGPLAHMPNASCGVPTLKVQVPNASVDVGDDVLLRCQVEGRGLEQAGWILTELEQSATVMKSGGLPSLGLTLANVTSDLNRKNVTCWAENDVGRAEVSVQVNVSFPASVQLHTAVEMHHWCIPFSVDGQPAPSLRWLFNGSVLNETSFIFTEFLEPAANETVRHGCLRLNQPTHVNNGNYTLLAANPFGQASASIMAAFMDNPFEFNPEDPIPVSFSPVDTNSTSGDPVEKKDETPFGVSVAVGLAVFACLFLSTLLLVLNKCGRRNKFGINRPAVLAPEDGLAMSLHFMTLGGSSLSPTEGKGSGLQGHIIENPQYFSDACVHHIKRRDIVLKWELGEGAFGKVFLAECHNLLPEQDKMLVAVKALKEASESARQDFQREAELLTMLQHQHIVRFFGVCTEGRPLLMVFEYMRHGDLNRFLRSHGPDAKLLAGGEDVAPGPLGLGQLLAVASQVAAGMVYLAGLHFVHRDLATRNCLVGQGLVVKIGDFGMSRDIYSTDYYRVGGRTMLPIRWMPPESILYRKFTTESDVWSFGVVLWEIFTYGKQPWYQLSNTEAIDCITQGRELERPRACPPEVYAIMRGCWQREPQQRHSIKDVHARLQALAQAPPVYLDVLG
Activity calls are given as the source filed them.
Select the correct class. Options are active, inactive and nothing else.

Consider the worked cases shown below.
# compound, discrete label
records = [
    ("O=C(Nc1ccc(OC(F)(F)F)cc1)c1sccc1NCc1ccnc2ccccc12 [OSI-930]", "inactive"),
    ("S=C(NCc1ccc2c(c1)OCO2)N1CCN(c2ncnc3c2oc2ccccc23)CC1 [AMUVATINIB]", "inactive"),
    ("Cc1c(Cn2c(C)nc3c(C(=O)O)cc(N4CCOCC4)cc32)cccc1C(F)(F)F [GSK-2636771]", "inactive"),
    ("C=CC(=O)Nc1cc(Nc2nccc(-c3cn(C)c4ccccc34)n2)c(OC)cc1N(C)CCN(C)C [OSIMERTINIB]", "inactive"),
    ("COc1cccc2cc(-c3nc([C@H]4CC[C@H](C(=O)O)CC4)n4ncnc(N)c34)[nH]c12 [OSI-027]", "inactive"),
    ("Cc1cc(Nc2nc(N[C@@H](C)c3ncc(F)cn3)ncc2Cl)n[nH]1 [AZD-1480]", "inactive"),
    ("COc1cc2nccc(Oc3ccc(NC(=O)C4(C(=O)Nc5ccc(F)cc5)CC4)cc3)c2cc1OC [CABOZANTINIB]", "active"),
    ("CN1CCN(c2nc(C3=C(c4c[nH]c5ccccc45)C(=O)NC3=O)c3ccccc3n2)CC1 [SOTRASTAURIN]", "inactive"),
    ("N#CCNC(=O)c1ccc(-c2ccnc(Nc3ccc(N4CCOCC4)cc3)n2)cc1 [MOMELOTINIB]", "inactive"),
    ("C#Cc1cccc(Nc2ncnc3cc4c(cc23)OCCOCCOCCO4)c1 [ICOTINIB]", "inactive"),
]

(Q) Tell me the recorded outcome of this test for FC(F)(F)c1ccc(CNc2ccc(Cc3c[nH]c4ncc(Cl)cc34)cn2)cn1 [PEXIDARTINIB] .
(A) inactive

(Q) Please state the recorded outcome for this compound: CCN1CCN(Cc2ccc(Nc3ncc(F)c(-c4cc(F)c5nc(C)n(C(C)C)c5c4)n3)nc2)CC1 [ABEMACICLIB]
(A) inactive

###

- tested system: Epidermal growth factor receptor (Homo sapiens); also: in the data inactive means no Kd found up to 30 µM
- Sequence (P00533 whole entry): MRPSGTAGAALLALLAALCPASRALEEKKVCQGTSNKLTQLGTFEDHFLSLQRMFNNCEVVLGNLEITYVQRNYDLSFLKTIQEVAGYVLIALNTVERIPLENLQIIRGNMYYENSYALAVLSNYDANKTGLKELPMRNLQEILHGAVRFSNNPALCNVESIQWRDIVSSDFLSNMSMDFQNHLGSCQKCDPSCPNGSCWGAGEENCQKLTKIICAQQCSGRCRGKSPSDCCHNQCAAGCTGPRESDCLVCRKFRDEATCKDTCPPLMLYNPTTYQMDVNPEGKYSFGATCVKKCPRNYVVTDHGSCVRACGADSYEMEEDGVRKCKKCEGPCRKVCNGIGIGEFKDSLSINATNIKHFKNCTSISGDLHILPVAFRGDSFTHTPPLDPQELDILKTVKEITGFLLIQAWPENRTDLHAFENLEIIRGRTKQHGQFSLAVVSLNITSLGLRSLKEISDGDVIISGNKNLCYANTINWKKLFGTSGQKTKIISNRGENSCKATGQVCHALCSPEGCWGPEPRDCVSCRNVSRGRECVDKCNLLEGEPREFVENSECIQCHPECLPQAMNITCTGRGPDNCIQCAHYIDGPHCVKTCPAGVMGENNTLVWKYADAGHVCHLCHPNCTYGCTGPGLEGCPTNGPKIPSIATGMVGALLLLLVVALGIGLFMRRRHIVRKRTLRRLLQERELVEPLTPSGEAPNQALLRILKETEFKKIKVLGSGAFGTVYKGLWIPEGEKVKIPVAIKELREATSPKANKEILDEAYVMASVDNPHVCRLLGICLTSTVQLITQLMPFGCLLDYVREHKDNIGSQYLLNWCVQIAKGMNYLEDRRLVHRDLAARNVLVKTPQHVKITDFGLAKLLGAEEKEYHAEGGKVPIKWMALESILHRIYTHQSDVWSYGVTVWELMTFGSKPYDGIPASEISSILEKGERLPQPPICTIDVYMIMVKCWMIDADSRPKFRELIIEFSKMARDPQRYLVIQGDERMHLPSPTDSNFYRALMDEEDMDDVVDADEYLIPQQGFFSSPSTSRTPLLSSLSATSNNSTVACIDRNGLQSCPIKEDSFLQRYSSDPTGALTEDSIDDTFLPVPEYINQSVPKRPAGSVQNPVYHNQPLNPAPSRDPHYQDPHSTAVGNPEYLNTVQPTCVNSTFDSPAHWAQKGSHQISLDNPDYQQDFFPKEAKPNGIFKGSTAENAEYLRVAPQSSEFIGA
Activity calls are given as the source filed them.
Pick from yes (1) for active, no (0) for inactive when you respond.

These solved cases illustrate the format of a correct answer.
# input smiles, discrete label
measured = [
    ("CCc1nc(C(N)=O)c(Nc2ccc(N3CCC(N4CCN(C)CC4)CC3)c(OC)c2)nc1NC1CCOCC1", "yes (1)"),
    ("CNC(=O)c1cccc(-c2ccc3c(N4CCOC[C@@H]4C)nc(N4CCOC[C@@H]4C)nc3n2)c1", "no (0)"),
]

(Q) Hello, I am checking results. What call was entered for COc1cc(F)c(F)c(Nc2ccc(I)cc2F)c1NS(=O)(=O)C1(C[C@H](O)CO)CC1 ?
(A) no (0)

(Q) For Cn1c(=O)n(-c2ccc(C(C)(C)C#N)cc2)c2c3cc(-c4cnc5ccccc5c4)ccc3ncc21 , what call appears in the results of this test?
(A) no (0)

(Q) Hi, do you know how CC[C@@](C)(Nc1ccnc(-c2c[nH]c3ncccc23)n1)C(=O)NCC(F)(F)F came out in this test?
(A) no (0)

(Q) For CC1(COc2ccc3c(c2)ncn3-c2ccc3cccc(N4CCC(N)CC4)c3n2)COC1 , what call appears in the results of this test?
(A) no (0)

(Q) Entry NC[C@@](O)(c1ccc(Cl)cc1)c1ccc(-c2cn[nH]c2)cc1 : call = ?
(A) no (0)

(Q) Field: outcome | Entry: c1cc(OCCN2CCCCC2)cc(-c2n[nH]c3ccc(-c4nc[nH]n4)cc23)c1
(A) no (0)

###

- tested system: Tyrosine-protein kinase ABL1 (Homo sapiens, UniProt P00519); also: in the data inactive means no Kd found up to 30 µM
- Sequence (P00519 whole entry): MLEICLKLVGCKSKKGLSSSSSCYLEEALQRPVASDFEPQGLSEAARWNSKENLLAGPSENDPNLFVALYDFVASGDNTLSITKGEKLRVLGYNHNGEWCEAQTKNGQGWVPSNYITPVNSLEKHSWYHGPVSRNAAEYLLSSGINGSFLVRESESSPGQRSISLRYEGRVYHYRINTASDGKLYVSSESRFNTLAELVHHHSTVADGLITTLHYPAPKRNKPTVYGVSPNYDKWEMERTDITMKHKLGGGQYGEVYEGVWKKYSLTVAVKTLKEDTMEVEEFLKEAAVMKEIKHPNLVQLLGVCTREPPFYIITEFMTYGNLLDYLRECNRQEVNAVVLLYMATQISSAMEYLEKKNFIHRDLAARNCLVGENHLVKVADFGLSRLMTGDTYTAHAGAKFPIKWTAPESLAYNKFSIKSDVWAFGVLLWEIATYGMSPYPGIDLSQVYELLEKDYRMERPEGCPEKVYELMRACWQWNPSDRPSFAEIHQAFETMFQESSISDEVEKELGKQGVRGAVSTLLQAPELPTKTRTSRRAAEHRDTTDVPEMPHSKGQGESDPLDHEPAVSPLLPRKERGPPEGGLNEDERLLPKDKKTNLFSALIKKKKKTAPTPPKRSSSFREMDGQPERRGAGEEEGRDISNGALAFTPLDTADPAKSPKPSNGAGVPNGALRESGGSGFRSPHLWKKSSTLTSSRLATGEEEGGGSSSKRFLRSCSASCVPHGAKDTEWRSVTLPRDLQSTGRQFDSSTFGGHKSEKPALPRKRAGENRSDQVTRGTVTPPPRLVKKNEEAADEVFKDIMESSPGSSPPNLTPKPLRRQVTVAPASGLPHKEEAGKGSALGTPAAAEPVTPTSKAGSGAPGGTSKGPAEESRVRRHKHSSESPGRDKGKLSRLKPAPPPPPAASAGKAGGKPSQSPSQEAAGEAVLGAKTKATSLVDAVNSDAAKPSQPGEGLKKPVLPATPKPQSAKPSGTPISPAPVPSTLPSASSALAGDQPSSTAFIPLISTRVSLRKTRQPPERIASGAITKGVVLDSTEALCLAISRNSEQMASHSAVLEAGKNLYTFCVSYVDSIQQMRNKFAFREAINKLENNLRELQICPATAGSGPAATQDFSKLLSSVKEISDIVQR
Calls of active or inactive are those of the source.
Allowed answers: YES for active, NO for inactive

# count of solved cases: 7
# molecule, discrete label
measured = [
    ("O=C(Nc1ccc(OC(F)(F)F)cc1)c1sccc1NCc1ccnc2ccccc12", "NO"),
    ("COc1cc(Nc2ncc(F)c(Nc3ccc4c(n3)N(COP(=O)(O)O)C(=O)C(C)(C)O4)n2)cc(OC)c1OC", "NO"),
    ("O=c1[nH]c([C@@H]2CCCN2)nc2c1oc1ccc(Cl)cc12", "NO"),
    ("COc1cc(F)c(F)c(Nc2ccc(I)cc2F)c1NS(=O)(=O)C1(C[C@H](O)CO)CC1", "NO"),
    ("CCOc1ccn(-c2ccc(F)cc2)c(=O)c1C(=O)Nc1ccc(Oc2ccnc(N)c2Cl)c(F)c1", "YES"),
    ("C=CC(=O)Nc1cc(Nc2nccc(-c3cn(C)c4ccccc34)n2)c(OC)cc1N(C)CCN(C)C", "NO"),
    ("COc1cccc2cc(-c3nc([C@H]4CC[C@H](C(=O)O)CC4)n4ncnc(N)c34)[nH]c12", "NO"),
]

For the next question, use this molecule.
(Q) Can you look up the reported call for COc1cc2nccc(Oc3ccc(NC(=O)C4(C(=O)Nc5ccc(F)cc5)CC4)cc3)c2cc1OC [CABOZANTINIB] for me?
(A) YES

###

- tested system: Receptor-interacting serine/threonine-protein kinase 2 (Homo sapiens, UniProt O43353); also: in the data inactive means no Kd found up to 30 µM
- Sequence (O43353 whole entry): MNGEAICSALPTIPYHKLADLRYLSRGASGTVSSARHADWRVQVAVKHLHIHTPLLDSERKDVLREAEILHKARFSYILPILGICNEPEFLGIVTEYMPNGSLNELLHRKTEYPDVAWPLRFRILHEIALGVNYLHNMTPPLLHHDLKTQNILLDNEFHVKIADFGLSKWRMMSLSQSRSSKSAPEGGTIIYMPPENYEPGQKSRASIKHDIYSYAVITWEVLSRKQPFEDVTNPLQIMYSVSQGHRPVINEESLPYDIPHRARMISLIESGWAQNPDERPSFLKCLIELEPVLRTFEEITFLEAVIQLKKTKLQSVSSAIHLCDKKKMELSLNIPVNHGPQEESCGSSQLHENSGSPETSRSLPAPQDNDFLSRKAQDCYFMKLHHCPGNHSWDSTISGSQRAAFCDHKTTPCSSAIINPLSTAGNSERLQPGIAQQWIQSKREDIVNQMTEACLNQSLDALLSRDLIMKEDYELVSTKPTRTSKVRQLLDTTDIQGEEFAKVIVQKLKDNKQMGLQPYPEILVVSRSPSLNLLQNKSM
Active and inactive are the calls of the source.
Give one outcome, nothing more. List: True = active, False = inactive

# compound, discrete label
rows = [
    ("COCCN1CCN(Cc2ccc(-c3n[nH]c4c3C(=O)c3c(NC(=O)NN5CCOCC5)cccc3-4)cc2)CC1", "False"),
    ("C=CC(=O)Nc1cc(Nc2nccc(-c3cn(C)c4ccccc34)n2)c(OC)cc1N(C)CCN(C)C", "False"),
    ("Cc1cc(-c2cc(OC(=O)c3ccccc3)ccc2Cl)cc2nnc(Nc3ccc(OCCN4CCCC4)cc3)nc12", "True"),
    ("FC(F)(F)c1ccc(CNc2ccc(Cc3c[nH]c4ncc(Cl)cc34)cn2)cn1", "False"),
    ("Cc1cc(C(=O)Nc2cc(Oc3ccc4nc(NC(=O)C5CC5)cn4n3)ccc2C)n(C)n1", "False"),
]

(Q) Called result for Cc1ccc(C(=O)Nc2ccc(Oc3cc4cnn(C)c4cc3-c3cn[nH]c3)c(F)c2)c(=O)n1-c1ccc(F)cc1
(A) False

(Q) Look up the recorded call for S=C(NCc1ccc2c(c1)OCO2)N1CCN(c2ncnc3c2oc2ccccc23)CC1 in this test.
(A) False

(Q) Could you please tell me the result logged for CN(c1ncccc1CNc1nc(Nc2ccc3c(c2)CC(=O)N3)ncc1C(F)(F)F)S(C)(=O)=O in this assay?
(A) False

(Q) Write down the call the test reported for this compound. Item: O=C(Nc1ccc(OC(F)(F)F)cc1)c1sccc1NCc1ccnc2ccccc12
(A) False

(Q) Status in this test for COc1ccc(-c2ccc3ncc4c(c3c2)n(-c2ccc(N3CCNCC3)c(C(F)(F)F)c2)c(=O)n4C)cn1 [BGT-226 FREE BASE] ?
(A) False

(Q) Just curious, what result did O=S(=O)(c1cccc2cnccc12)N1CCCNCC1 get here?
(A) False

###

- tested system: Mitogen-activated protein kinase kinase kinase kinase 3 (Homo sapiens); also: in the data inactive means no Kd found up to 30 µM
- Sequence (Q8IVH8 whole entry): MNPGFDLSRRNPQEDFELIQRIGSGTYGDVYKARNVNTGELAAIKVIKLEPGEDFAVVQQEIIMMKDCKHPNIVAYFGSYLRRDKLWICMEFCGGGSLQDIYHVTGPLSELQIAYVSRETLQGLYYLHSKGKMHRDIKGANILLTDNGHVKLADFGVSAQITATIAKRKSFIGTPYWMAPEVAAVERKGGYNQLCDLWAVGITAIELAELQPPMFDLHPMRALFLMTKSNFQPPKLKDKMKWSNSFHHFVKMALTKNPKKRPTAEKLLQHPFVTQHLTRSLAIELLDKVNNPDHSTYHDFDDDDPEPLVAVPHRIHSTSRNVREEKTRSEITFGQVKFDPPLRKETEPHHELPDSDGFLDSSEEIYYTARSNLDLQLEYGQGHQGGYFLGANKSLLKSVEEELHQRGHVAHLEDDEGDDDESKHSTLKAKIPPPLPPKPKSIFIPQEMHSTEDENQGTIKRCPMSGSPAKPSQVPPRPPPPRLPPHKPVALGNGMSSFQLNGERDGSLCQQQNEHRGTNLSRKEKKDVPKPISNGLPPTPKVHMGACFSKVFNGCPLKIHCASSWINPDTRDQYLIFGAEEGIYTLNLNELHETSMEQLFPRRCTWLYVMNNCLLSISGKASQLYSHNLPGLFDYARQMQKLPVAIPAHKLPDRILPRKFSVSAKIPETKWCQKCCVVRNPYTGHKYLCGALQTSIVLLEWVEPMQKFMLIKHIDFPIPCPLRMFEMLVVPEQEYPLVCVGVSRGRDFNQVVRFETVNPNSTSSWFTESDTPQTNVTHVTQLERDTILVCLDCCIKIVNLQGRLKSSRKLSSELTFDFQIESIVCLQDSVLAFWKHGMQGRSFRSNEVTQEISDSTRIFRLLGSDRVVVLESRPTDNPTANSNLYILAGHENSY
Active and inactive are the calls of the source.
Log the outcome using a class from active, inactive

# compound, discrete label
data = [
    ("COCCN1CCN(Cc2ccc(-c3n[nH]c4c3C(=O)c3c(NC(=O)NN5CCOCC5)cccc3-4)cc2)CC1 [RGB-286638]", "inactive"),
    ("Cc1cc(-c2cc(OC(=O)c3ccccc3)ccc2Cl)cc2nnc(Nc3ccc(OCCN4CCCC4)cc3)nc12 [TG100-801]", "inactive"),
    ("C=CC(=O)Nc1cc(Nc2nccc(-c3cn(C)c4ccccc34)n2)c(OC)cc1N(C)CCN(C)C [OSIMERTINIB]", "inactive"),
    ("CCN(CCCOc1ccc2c(Nc3cc(CC(=O)Nc4cccc(F)c4)n[nH]3)ncnc2c1)CCOP(=O)(O)O [BARASERTIB]", "inactive"),
    ("COc1ccc2c(OCc3nnc4ccc(-c5ccccc5)nn34)ccnc2c1 [AMG-208]", "inactive"),
]

(Q) How was C[C@]1(O)C[C@@H](c2nc(-c3ccc4ccc(-c5ccccc5)nc4c3)c3c(N)nccn32)C1 [LINSITINIB] classified in this test?
(A) active

(Q) So what was the verdict on NC(=O)c1ccc(N(C(N)=O)c2c(F)cccc2F)nc1-c1ccc(F)cc1F [VX-702] in this test?
(A) inactive

(Q) What did this assay record as the result for Cn1cc(-c2[nH]c3cc(NC(=O)[C@H](N)C4CCCCC4)cc4c3c2C=NNC4=O)cn1 ?
(A) active

(Q) Assay outcome for C[C@@H]1COC(Nc2ccc3ncnc(Nc4ccc(OCc5nccs5)c(Cl)c4)c3c2)=N1 [VARLITINIB] : what was it?
(A) inactive
